- measurement.target: ERBB2 (HER2) (UniProt P04626 P04626:23-652)
- test.summary: filter; +/-0.20; same buffer, 37 C; not competing with ERBB2-12
- stated.conditions: tags: His-tagged; R&D Systems Cat# 1129-ER; label: 5'-32P
measured.attribute: pKd
Keep in mind that pKd stands for -log10 of concentration in molar terms.

stdin: // lookup pKd for ERBB2-1 (ssDNA) DNA: GAGTGACCGTCTGCCTGATGTTAGAGTTTGCCTGAGTGCCTCGTAAGGGCGTAACAACAGCCACACCACCAGCC
stdout: 8.52
